Each entry below carries its reported RP-LC retention time.
run description: gradient 5% acetonitrile 3 min, to 50% in 2 min, to 85% in 15 min, held 3 min, 100 µL/min
settings: column: Zorbax Extend-C18 2.1 x 50 mm; eluents: water / acetonitrile, 0.1% formic acid

Consider the worked cases shown below.
molecule	result
Cc1noc(C)c1C1CCCN1C(=O)CCc1ccccc1 (stereo unspecified)	775 s
CC(=O)N1CCc2cc(N3CC(C(=O)Nc4cccc(C)c4)CC3=O)ccc21 (stereo unspecified)	712 s
CCOC(=O)CNC(=O)N1CCc2cc(-c3ccc(C(=O)N4CCOCC4)cc3)ccc21	723 s
COc1ccc(-c2nc(-c3nnn(-c4ccccc4)c3C)no2)c(OC)c1	1000 s

Query CCCCS(=O)(=O)N1CCCC(c2nnc(-c3ccc4c(c3)OCO4)o2)C1 (stereo unspecified) yields RP-LC retention time of 819 s

Query Cc1nc(-c2ccccc2)cc2nn(CC(=O)NC3CCCC3)c(=O)n12 yields RP-LC retention time of 865 s
